// data source = ChEMBL document CHEMBL2380193

- Test system: Staphylococcus aureus
- Procedure Summary: Antibacterial activity against Staphylococcus aureus MTCC 096 after 14 hrs by serial dilution method
- Type: functional
- Condition Context: MTCC 096, 14 h
Some molecules, each annotated with its measured MIC.
Metric Name: MIC

Cc1ccc2nc(C(F)(F)F)cc(OCCCCN3C(=O)c4ccccc4C3=O)c2c1 :: 6.25 µg/mL
O=C1c2ccccc2C(=O)N1CCCCOc1cc(C(F)(F)F)nc2ccc(F)cc12 :: 6.25 µg/mL
CN1CCN(C/C=C/Cn2c(C(F)(F)F)cc(=O)c3cc(F)ccc32)CC1 :: 6.25 µg/mL
COc1ccc2c(c1)c(=O)cc(C(F)(F)F)n2CCCCN1C(=O)c2ccccc2C1=O :: 6.25 µg/mL
O=c1cc(C(F)(F)F)n(CCCCN2CCCC2)c2ccc(F)cc12 :: 6.25 µg/mL
O=C1c2ccccc2C(=O)N1CCCCn1c(C(F)(F)F)cc(=O)c2ccccc21 :: 12.5 µg/mL
O=c1cc(C(F)(F)F)n(C/C=C/CN2CCCCC2)c2ccc(F)cc12 :: 12.5 µg/mL
O=c1cc(C(F)(F)F)n(CCCCN2CCOCC2)c2ccc(F)cc12 :: 6.25 µg/mL
O=c1cc(C(F)(F)F)n(C/C=C/CN2CCCC2)c2ccc(F)cc12 :: 6.25 µg/mL
CN1CCN(CCCCn2c(C(F)(F)F)cc(=O)c3cc(F)ccc32)CC1 :: 6.25 µg/mL
O=C1c2ccccc2C(=O)N1CCCCOc1cc(C(F)(F)F)nc2ccccc12 :: 6.25 µg/mL
O=c1cc(C(F)(F)F)n(CCCCN2CCCCC2)c2ccc(F)cc12 :: 12.5 µg/mL
Cc1ccc2c(c1)c(=O)cc(C(F)(F)F)n2CCCCN1C(=O)c2ccccc2C1=O :: 6.25 µg/mL
O=c1cc(C(F)(F)F)n(C/C=C/CN2CCOCC2)c2ccc(F)cc12 :: 12.5 µg/mL
O=C1c2ccccc2C(=O)N1CCCCn1c(C(F)(F)F)cc(=O)c2cc(F)ccc21 :: 6.25 µg/mL

----------
- System: Aspergillus flavus
- Procedure Summary: Antifungal activity against Aspergillus flavus MTCC 277 after 30 hrs by serial dilution method
- Format: functional
- Condition Context: MTCC 277, 30 h
Metric Name: MIC

O=C1c2ccccc2C(=O)N1CCCCOc1cc(C(F)(F)F)nc2ccccc12 :: 25 µg/mL
O=c1cc(C(F)(F)F)n(CCCCN2CCOCC2)c2ccc(F)cc12 :: 25 µg/mL
O=C1c2ccccc2C(=O)N1CCCCn1c(C(F)(F)F)cc(=O)c2ccccc21 :: 25 µg/mL
CN1CCN(C/C=C/Cn2c(C(F)(F)F)cc(=O)c3cc(F)ccc32)CC1 :: 12.5 µg/mL
CN1CCN(CCCCn2c(C(F)(F)F)cc(=O)c3cc(F)ccc32)CC1 :: 25 µg/mL
COc1ccc2c(c1)c(=O)cc(C(F)(F)F)n2CCCCN1C(=O)c2ccccc2C1=O :: 25 µg/mL
O=c1cc(C(F)(F)F)n(C/C=C/CN2CCCCC2)c2ccc(F)cc12 :: 25 µg/mL
O=c1cc(C(F)(F)F)n(CCCCN2CCCCC2)c2ccc(F)cc12 :: 12.5 µg/mL
Cc1ccc2nc(C(F)(F)F)cc(OCCCCN3C(=O)c4ccccc4C3=O)c2c1 :: 50 µg/mL
O=c1cc(C(F)(F)F)n(C/C=C/CN2CCCC2)c2ccc(F)cc12 :: 12.5 µg/mL
Clc1ccc(COC(Cn2ccnc2)c2ccc(Cl)cc2Cl)c(Cl)c1 (stereo unspecified) [MICONAZOLE] :: 6.25 µg/mL
O=c1cc(C(F)(F)F)n(C/C=C/CN2CCOCC2)c2ccc(F)cc12 :: 25 µg/mL
Cc1ccc2c(c1)c(=O)cc(C(F)(F)F)n2CCCCN1C(=O)c2ccccc2C1=O :: 12.5 µg/mL
O=C1c2ccccc2C(=O)N1CCCCOc1cc(C(F)(F)F)nc2ccc(F)cc12 :: 12.5 µg/mL
O=C1c2ccccc2C(=O)N1CCCCn1c(C(F)(F)F)cc(=O)c2cc(F)ccc21 :: 25 µg/mL
O=c1cc(C(F)(F)F)n(CCCCN2CCCC2)c2ccc(F)cc12 :: 12.5 µg/mL
